- MEASURED_ON: KRAS G12C (Homo sapiens, UniProt P01116, G12C)
- EXPERIMENT_NOTES: Cell Activity Assay: accumulation of GDP-bound KRAS G12C in MIAPaCa-2 cells (Raf-1 RBD capture, MSD readout)
- Format: cell-based
- Design: endogenous in cells; host or cells: MIAPaCa-2
- TEST_SETTINGS: 6 hours, assay limit is 30.00
QUANTITY: IC50

In the examples that follow, each entry is paired with its recorded IC50.
C=CC(=O)N1C[C@H](C)N(c2nc(N3CC(N(C)C)C3)nc3c(Oc4c(C)ccc5[nH]ncc45)nc(C)cc23)C[C@H]1C [Example 06B]
> 30 µM
C=CC(=O)N1CCN(c2nc(OCC3CCCO3)nc3c(Oc4c(Cl)c(F)cc5[nH]ncc45)nc(Cl)cc23)CC1 (stereo not drawn) [Example 11G]
0.102 µM
C=CC(=O)N1CCN(c2nc(O[C@@H]3CN(C)C[C@H]3OC)nc3c(Oc4c(Cl)c(F)cc5[nH]ncc45)nccc23)CC1 [Example 10I]
0.022 µM
C=CC(=O)N1CCN(c2nc(OC[C@@H]3C[C@@H](F)CN3C)nc3c(Oc4c(Cl)c(F)cc5[nH]ncc45)nccc23)CC1 [Example 16H]
0.169 µM
C=CC(=O)N1CCN(c2nc(OC[C@@H]3CCCN3C)nc3c(Oc4c(Cl)ccc5[nH]ncc45)nc(Cl)cc23)CC1 [Example 09G]
0.069 µM

Request the reported IC50 associated with C=CC(=O)N1CCN(c2nc(O[C@@H]3CN(C)C[C@H]3OC)nc3c(Oc4c(Cl)c(F)cc5[nH]ncc45)cccc23)CC1 [Example 01L]
0.038 µM

====

- MEASURED_ON: GDP-loaded KRAS (1-169) G12C, C51S, C80L, C118S (Homo sapiens, UniProt P01116, C118S/C51S/C80L/G12C)
- Construct: GDP-loaded KRAS (1-169) G12C, C51S, C80L, C118S
- EXPERIMENT_NOTES: Mass Spectrometry Reactivity Assay (MSRA): covalent adduct of compound and KRAS G12C, Percent Modification
- Type: binding
- TEST_SETTINGS: 10 μM compound, 0.25 hr
QUANTITY: MSRA (% modification) 10 μM 0.25 hr (%)
Give bare numbers, in %.

C=CC(=O)N1CCN(c2nc(OC[C@@H]3CN(C)C[C@H]3OC)nc3c(Oc4c(Cl)c(F)cc5[nH]ncc45)nc(Cl)cc23)CC1 [Example 19G]
60

Need MSRA (% modification) 10 μM 0.25 hr for each of these compounds.
1. C=CC(=O)N1CCN(c2nc(OC[C@@H]3CCCN3C)nc3c(Oc4c(Cl)c(C)cc5[nH]ncc45)nc(Cl)cc23)CC1 [Example 06G]
2. C=CC(=O)N1CCN(c2nc(OC[C@@H]3C[C@H](F)CN3C)nc3c(Oc4c(C)c(Cl)cc5[nH]ncc45)nc(Cl)cc23)CC1 [Example 17G]

[82, 79]

====

For each entry below, report its MSRA (% modification) 5.0 μM 0.017 hr value.
- MEASURED_ON: GDP-loaded KRAS (1-169) G12C, C51S, C80L, C118S (Homo sapiens, UniProt P01116, C118S/C51S/C80L/G12C)
- Construct: GDP-loaded KRAS (1-169) G12C, C51S, C80L, C118S
- EXPERIMENT_NOTES: Mass Spectrometry Reactivity Assay (MSRA): covalent adduct of compound and KRAS G12C, Percent Modification
- Assay type: binding
- TEST_SETTINGS: 5.0 μM compound, 0.017 hr
One number for each entry, in %.

C=CC(=O)N1CCN(c2nc(Oc3ccc(F)c4c3CN(C)CC4)nc3c(Oc4c(Cl)c(F)cc5[nH]ncc45)nccc23)CC1 [Example 54I]
78
C=CC(=O)N1CCN(c2nc(O[C@@H]3CCN(C)C[C@H]3C)nc3c(Oc4c(Cl)c(F)cc5[nH]ncc45)nc(Cl)cc23)CC1 (racemic) [Example 34G]
47
C=CC(=O)N1CCN(c2nc(O[C@@H]3CN(C)C[C@H]3OC)nc3c(Oc4c(Cl)ccc5[nH]ncc45)nc(Cl)cc23)CC1 [Example 38G]
75

Shifting focus to the compound that follows.
Request the reported MSRA (% modification) 5.0 μM 0.017 hr associated with C=CC(=O)N1CCN(c2nc(Oc3cccc4c3CCN(C3CC3)C4)nc3c(Oc4c(Cl)c(F)cc5[nH]ncc45)nccc23)CC1 [Example 55I]
60

Hey, just so you know, these numbers are from patent US10662204B2.
